- system: T1, human MSLN-R3-3 polypeptide (human)
- T1 construct: also called human MSLN-R3-3 protein; hMSLN-R3-3
- method: ELISA, coated antigen; antibody 0.0001 nM
OD450: recorded values
Return type: number; implicit unit OD450.

Below are worked cases with known answers.
[[record]]
binder = "S009-F3.16.1 (antibody, human IgG1, kappa, V domains shown, Human-murine chimeric antibody, human IgG1/kappa constant regions) VH: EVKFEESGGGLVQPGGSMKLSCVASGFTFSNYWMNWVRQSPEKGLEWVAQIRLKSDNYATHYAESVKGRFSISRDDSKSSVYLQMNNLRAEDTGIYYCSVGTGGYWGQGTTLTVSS VL: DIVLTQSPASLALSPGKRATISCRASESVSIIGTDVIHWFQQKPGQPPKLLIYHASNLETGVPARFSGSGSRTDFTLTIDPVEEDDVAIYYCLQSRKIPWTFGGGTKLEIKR"
result_units = "OD450"
recorded_result = 0.07

[[record]]
binder = "S009-F3.74.20 (antibody, human IgG1, kappa, V domains shown, Human-murine chimeric antibody, human IgG1/kappa constant regions) VH: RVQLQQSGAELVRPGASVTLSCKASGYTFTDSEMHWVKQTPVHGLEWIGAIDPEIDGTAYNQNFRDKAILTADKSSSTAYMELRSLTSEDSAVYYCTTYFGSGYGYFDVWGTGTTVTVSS VL: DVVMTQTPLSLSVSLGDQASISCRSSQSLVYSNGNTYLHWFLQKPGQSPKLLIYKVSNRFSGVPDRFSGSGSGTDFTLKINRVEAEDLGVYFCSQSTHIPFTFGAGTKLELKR"
result_units = "OD450"
recorded_result = 0.07


Proceeding to the next binder to report its OD450.
Qu. Which OD450 is reported for this binder? S009-F3.38.10 (antibody, human IgG1, kappa, V domains shown, Human-murine chimeric antibody, human IgG1/kappa constant regions) VH: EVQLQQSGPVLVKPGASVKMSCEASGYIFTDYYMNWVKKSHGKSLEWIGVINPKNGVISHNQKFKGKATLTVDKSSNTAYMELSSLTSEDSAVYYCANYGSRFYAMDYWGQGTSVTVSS VL: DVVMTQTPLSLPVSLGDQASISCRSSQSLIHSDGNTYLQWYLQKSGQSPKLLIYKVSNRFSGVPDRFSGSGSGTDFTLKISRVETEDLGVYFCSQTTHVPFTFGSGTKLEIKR
Ans. 0.07
